src = PubChem BioAssay (NCI)

Test system: HOP-62 NSCLC
Assay: NCI-60 one-dose screen, 48 h (100 = growth as untreated, 0 = no growth, -100 = all killed)
Conditions: 10 µM unless noted
The panel holds about 83,000 compounds, 20% with a hit somewhere; the sample as a whole holds those more often.
Checkbox rule: growth lower than 80% = Satisfied; growth not lower than 80% = Not satisfied.

Solved cases (3 shown):
                                   compound          group
0  COc1cc(-c2nc(C(=O)NCC(=O)O)nn2-c2ccc(Cl)cc2)cc(OC)c1OC  Not satisfied
1  CCn1c(-c2nonc2N)nc2c(C#CC(C)(C)O)ncc(OC[C@H]3CCCNC3)c21      Satisfied
2  CC(=O)O[C@]1(C)C[C@H](O)[C@]2(O)C=CO[C@H](O[C@@H]3O[C@H](CO)[C@@H](O)[C@H](O)[C@H]3O)[C@@H]21  Not satisfied

Prompt: Quick check: does COc1cc2c(c(OC)c1)C1c3ccccc3NC(=O)N1CC2 (stereo not given) have growth under 80%?
Completion: Satisfied

Prompt: Strictly below 80% in growth? `CCNC(=O)Nc1nc2ccc(Oc3ccnc(C(=O)NC)c3)cc2s1`
Completion: Satisfied
